# Test system: PPARg:RXRa 30nM:10nM, anti-RXR (NR concentration 30 nM, RXRa partner concentration 10 nM)
# assayText: PBM binding z-score (relative to random genomic background probes); higher = stronger binding; sequences stand for … in GC…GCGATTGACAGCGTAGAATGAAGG

- itemSequence: "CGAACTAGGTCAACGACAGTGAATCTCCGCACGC"
  tgt: "PPARg:RXRa 30nM:10nM, anti-RXR (NR concentration 30 nM, RXRa partner concentration 10 nM)"
  PBM binding z-score: 3.91
- itemSequence: "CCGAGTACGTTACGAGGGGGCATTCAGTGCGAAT"
  tgt: "PPARg:RXRa 30nM:10nM, anti-RXR (NR concentration 30 nM, RXRa partner concentration 10 nM)"
  PBM binding z-score: -0.231
- itemSequence: "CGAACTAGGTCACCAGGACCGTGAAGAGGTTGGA"
  tgt: "PPARg:RXRa 30nM:10nM, anti-RXR (NR concentration 30 nM, RXRa partner concentration 10 nM)"
  PBM binding z-score: 4.02
- itemSequence: "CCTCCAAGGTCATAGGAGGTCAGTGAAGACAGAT"
  tgt: "PPARg:RXRa 30nM:10nM, anti-RXR (NR concentration 30 nM, RXRa partner concentration 10 nM)"
  PBM binding z-score: 2.47
- itemSequence: "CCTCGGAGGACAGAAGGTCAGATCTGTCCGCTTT"
  tgt: "PPARg:RXRa 30nM:10nM, anti-RXR (NR concentration 30 nM, RXRa partner concentration 10 nM)"
  PBM binding z-score: -0.772
- itemSequence: "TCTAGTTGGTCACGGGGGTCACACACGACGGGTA"
  tgt: "PPARg:RXRa 30nM:10nM, anti-RXR (NR concentration 30 nM, RXRa partner concentration 10 nM)"
  PBM binding z-score: 4.82
- itemSequence: "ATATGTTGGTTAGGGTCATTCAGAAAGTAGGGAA"
  tgt: "PPARg:RXRa 30nM:10nM, anti-RXR (NR concentration 30 nM, RXRa partner concentration 10 nM)"
  PBM binding z-score: 1.7
- itemSequence: "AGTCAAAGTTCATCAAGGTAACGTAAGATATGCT"
  tgt: "PPARg:RXRa 30nM:10nM, anti-RXR (NR concentration 30 nM, RXRa partner concentration 10 nM)"
  PBM binding z-score: 3.52

The reported numbers originate from the supplement of paper PMC6555819.
